- ASSAY_SYSTEM: recombinant IL4I1 (Homo sapiens, UniProt Q96RQ9)
- Sequence (Q96RQ9 22-567): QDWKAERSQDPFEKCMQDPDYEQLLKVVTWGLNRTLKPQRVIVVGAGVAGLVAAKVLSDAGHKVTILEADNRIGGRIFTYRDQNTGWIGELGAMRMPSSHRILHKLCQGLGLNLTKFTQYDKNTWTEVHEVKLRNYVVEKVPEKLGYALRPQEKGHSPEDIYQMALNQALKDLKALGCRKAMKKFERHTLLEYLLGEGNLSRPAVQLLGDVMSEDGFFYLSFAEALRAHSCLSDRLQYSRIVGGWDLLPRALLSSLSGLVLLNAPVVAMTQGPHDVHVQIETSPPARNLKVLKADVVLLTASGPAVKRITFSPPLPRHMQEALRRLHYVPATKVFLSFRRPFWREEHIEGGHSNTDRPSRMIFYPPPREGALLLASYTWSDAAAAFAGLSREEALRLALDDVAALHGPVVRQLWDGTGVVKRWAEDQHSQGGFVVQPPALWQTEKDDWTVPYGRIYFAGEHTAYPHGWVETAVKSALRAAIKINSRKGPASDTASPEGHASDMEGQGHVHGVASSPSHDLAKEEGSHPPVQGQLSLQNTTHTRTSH
- TEST_METHOD_NOTES: IL4I1 Enzymatic Assay (Amplex Red/HRP coupled detection of H2O2, fluorescence)
- CONDITIONS_USED: 1 nM recombinant IL4I1; four-hour pre-incubation with compound; 1 mM each Phe, Tyr, Trp; ten-point titration
Measured EC50 determines class: category 1 (below 20 nM), category 2 (20 nM to below 200 nM), category 3 (200 nM or more)

>  <COMPOUND>
O=C(NCc1nnc(-c2ccccc2)s1)c1cn(CC2(CO)COC2)nn1

>  <CATEGORY_LABEL>
category 2

$$$$
>  <COMPOUND>
Cc1ccc(-n2cc(C(=O)NCc3nnc(-c4ccccc4)s3)nn2)c(=O)[nH]1

>  <CATEGORY_LABEL>
category 2

$$$$
>  <COMPOUND>
O=C(NCc1nnc(-c2ccccc2)s1)c1cn(C2CCCCC2)nn1

>  <CATEGORY_LABEL>
category 2

$$$$
>  <COMPOUND>
O=C(NCc1nnc(-c2ccccc2)s1)c1cn(C2CCOC2)nn1 (stereo not shown)

>  <CATEGORY_LABEL>
category 2

$$$$
>  <COMPOUND>
Cn1cc(C(=O)NCc2nnc(-c3cncs3)s2)nn1

>  <CATEGORY_LABEL>
category 2

$$$$

Any idea which band Cc1ccc(-n2cc(C(=O)NCc3ccc(-n4ccnn4)nn3)nn2)c(C)n1 (single isomer, unassigned) is in?
category 2

Any idea which band O=C(NCc1nnc(-c2ccccc2)s1)c1cn(CC2(O)COC2)nn1 is in?
category 1

Any idea which band O=C(NCc1nnc(-c2ccccc2)s1)c1cn(CCCO)nn1 is in?
category 1
